Target: CDK2 (Homo sapiens, UniProt P24941)
Construct: endogenous in cells; host or cells: MDA-MB-231
Assay: CDK protein degradation activity (Western blotting), CDK2
Assay type: cell-based
Conditions: MDA-MB-231 cells, 1 μM, 16 hours, Western blot
The compounds listed here are annotated with their Enzyme degradation CDK2 (% remaining) @ 1 μM.
Reported endpoint: Enzyme degradation CDK2 (% remaining) @ 1 μM (%)

>>> measured_result("Cc1cccc(C(=O)N[C@H]2C[C@@H](n3cnc4c(NCc5cccc(OCCCN6CCN(C(=O)CNc7cccc8c7C(=O)N([C@H]7CCC(=O)NC7=O)C8=O)CC6)c5)ncnc43)C2)n1")
40
>>> measured_result("Cc1cccc(C(=O)NC2CC(n3cnc4c(NCc5ccc(N6CCN(C(=O)CNc7cccc8c7C(=O)N([C@H]7CCC(=O)NC7=O)C8=O)CC6)cc5)ncnc43)C2)n1 (stereo partly shown)")
50
>>> measured_result("Cc1cccc(C(=O)NC2CC(n3cnc4c(Nc5ccc(N6CCN(CC7CCN(c8ccc9nnn([C@H]%10CCC(=O)NC%10=O)c(=O)c9c8)CC7)CC6)cc5C)ncnc43)C2)n1 (stereo partly shown)")
20
>>> measured_result("O=C1CC[C@H](N2C(=O)c3ccc(N4CCN(CCC5CCN(c6ccc(Nc7ncnc8c7ncn8[C@H]7C[C@@H](NC(=O)Cc8ccccc8)C7)cc6)CC5)CC4)cc3C2=O)C(=O)N1")
0
>>> measured_result("O=C(COc1ccc(C2CCC(=O)NC2=O)cc1)NC[C@H]1CC[C@H](CN2CCN(c3ccc(Nc4ncnc5c4ncn5[C@H]4C[C@@H](NC(=O)Cc5ccccc5)C4)cc3)CC2)CC1 (stereo partly shown)")
100
>>> measured_result("O=C1CC[C@H](N2C(=O)c3cc(F)c(N4CCC(CCN5CCN(c6ccc(Nc7ncnc8c7ncn8C7CC(NC(=O)Cc8ccccc8)C7)cc6)CC5)CC4)cc3C2=O)C(=O)N1 (stereo partly shown)")
50
>>> measured_result("O=C1CC[C@H](N2C(=O)c3cc(F)c(N4CCN(CC5CCN(c6ccc(Nc7ncnc8c7ncn8C7CC(NC(=O)c8c(Cl)cccc8Cl)C7)cc6)CC5)CC4)cc3C2=O)C(=O)N1 (stereo partly shown)")
20
>>> measured_result("O=C1CC[C@H](n2nnc3ccc(N4CCN(C5CCN(c6ccc(Nc7ncnc8c7ncn8C7CC(NC(=O)Cc8ccccc8)C7)cc6)CC5)CC4)cc3c2=O)C(=O)N1 (stereo partly shown)")
20
>>> measured_result("O=C1CC[C@H](N2C(=O)c3ccc(N4CCC(C(=O)N5CCC(CN6CCN(c7ccc(Nc8ncnc9c8ncn9C8CC(NC(=O)c9cccc(F)n9)C8)cc7)CC6)CC5)CC4)cc3C2=O)C(=O)N1 (stereo partly shown)")
30

###

Molecular target: CDK9 (Homo sapiens)
Construct: endogenous in cells; host or cells: MDA-MB-231
Sequence (P50750 whole entry): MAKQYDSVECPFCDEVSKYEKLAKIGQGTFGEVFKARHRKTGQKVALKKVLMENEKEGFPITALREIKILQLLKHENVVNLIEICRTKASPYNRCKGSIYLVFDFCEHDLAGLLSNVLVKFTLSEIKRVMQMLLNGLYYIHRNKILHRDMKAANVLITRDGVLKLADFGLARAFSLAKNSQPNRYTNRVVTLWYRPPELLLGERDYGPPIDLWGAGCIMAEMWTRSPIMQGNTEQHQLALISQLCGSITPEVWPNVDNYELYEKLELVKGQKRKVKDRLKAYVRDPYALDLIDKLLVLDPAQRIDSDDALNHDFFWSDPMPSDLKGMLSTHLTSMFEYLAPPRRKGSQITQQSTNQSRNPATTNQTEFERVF
Assay: CDK protein degradation activity (Western blotting), CDK9
Assay type: cell-based
Conditions: MDA-MB-231 cells, 1 μM, 16 hours, Western blot
The molecules listed here are annotated with their Enzyme degradation CDK9 (% remaining) @ 1 μM.
Reported endpoint: Enzyme degradation CDK9 (% remaining) @ 1 μM

>>> measured_result("Cc1cccc(C(=O)N[C@H]2C[C@@H](n3cnc4c(NCc5ccc(OCCCN6CCN(c7ccc8c(c7)C(=O)N(C7CCC(=O)NC7=O)C8=O)CC6)cc5)ncnc43)C2)n1 (some centres unmarked) [Compound 116]")
"0%"
>>> measured_result("Cc1cccc(C(=O)NC2CC(n3cnc4c(NCCCN5CCN(C(=O)CNc6cccc7c6C(=O)N([C@@H]6CCC(=O)NC6=O)C7=O)CC5)ncnc43)C2)n1 (some centres unmarked) [Compound 139]")
"90%"
>>> measured_result("Cc1cccc(C(=O)NC2CC(n3cnc4c(NCCC5CCN(CC6CCN(c7ccc8nnn([C@H]9CCC(=O)NC9=O)c(=O)c8c7)CC6)CC5)ncnc43)C2)n1 (some centres unmarked) [Compound 304]")
"0%"
>>> measured_result("Cc1cccc(C(=O)NC2CC(n3cnc4c(Nc5ccc(N6CCN(C7CC8(CCN(C(=O)COc9ccc([C@@H]%10CCC(=O)NC%10=O)cc9)CC8)C7)CC6)cc5)ncnc43)C2)n1 (some centres unmarked) [Compound 435]")
"10/10/10%"
>>> measured_result("O=C1CC[C@H](n2nnc3ccc(N4CCN(C5CC6(CCN(c7ccc(Nc8ncnc9c8ncn9C8CC(NC(=O)Cc9ccccc9)C8)cc7)CC6)C5)CC4)cc3c2=O)C(=O)N1 (some centres unmarked) [Compound 337]")
"10%"

###

The molecules listed here are annotated with their Enzyme degradation CDK2 (% remaining) @ 0.1 μM.
Molecular target: CDK2 (Homo sapiens, UniProt P24941)
Construct: endogenous in cells; host or cells: MDA-MB-231
Experiment: CDK protein degradation activity (Western blotting), CDK2
Assay type: cell-based
Conditions: MDA-MB-231 cells, 0.1 μM, 16 hours, Western blot
Reported endpoint: Enzyme degradation CDK2 (% remaining) @ 0.1 μM (%)

>>> measured_result("Cc1cccc(C(=O)N[C@H]2C[C@@H](n3cnc4c(NCc5cccc(N6CCN(C(=O)CNc7cccc8c7C(=O)N(C7CCC(=O)NC7=O)C8=O)CC6)c5)ncnc43)C2)n1 (some centres unmarked) [Compound 130]")
60
>>> measured_result("Cc1cccc(C(=O)N[C@H]2C[C@@H](n3cnc4c(NC5CCN(CC6CCN(C(=O)CNc7ccc8c(c7)C(=O)N([C@H]7CCC(=O)NC7=O)C8=O)CC6)CC5)ncnc43)C2)n1 [Compound 25]")
20
>>> measured_result("O=C1CCN(c2coc3cc(C(=O)N4CCC(CN5CCN(c6ccc(Nc7ncnc8c7ncn8[C@H]7C[C@@H](NC(=O)Cc8ccccc8)C7)cc6)CC5)CC4)ccc23)C(=O)N1 [Compound 187]")
30
>>> measured_result("O=C1CC[C@H](N2C(=O)c3cc(F)c(N4CCC(CN5CCN(c6ccc(Nc7ncnc8c7ncn8[C@H]7C[C@@H](NC(=O)c8cccc(Cl)n8)C7)cc6)CC5)CC4)cc3C2=O)C(=O)N1 [Compound 416]")
20

###

Target: CDK2 (Homo sapiens, UniProt P24941)
Construct: endogenous in cells; host or cells: MDA-MB-231
Experiment: CDK protein degradation activity (Western blotting), CDK2
Type: cell-based
Details: MDA-MB-231 cells, 0.1 μM, 16 hours, Western blot
Reported endpoint: Enzyme degradation CDK2 (% remaining) @ 0.1 μM

>>> measured_result("O=C1CCC(N2C(=O)c3cccc(OCC(=O)N4CCC5(CC4)CC(N4CCC(c6ccc(Nc7ncnc8c7ncn8[C@H]7C[C@@H](NC(=O)Cc8ccccc8)C7)cc6)CC4)C5)c3C2=O)C(=O)N1 (stereo partly shown)")
"0/0/0%"
>>> measured_result("O=C1CCC(c2ccc(OCC(=O)N3CCC4(CC3)CC(N3CCN(c5ccc(Nc6ncnc7c6ncn7[C@H]6C[C@@H](NC(=O)Cc7ccccc7)C6)cc5)CC3)C4)cc2)C(=O)N1 (stereo partly shown)")
"30/30/30%"
>>> measured_result("O=C1CC[C@@H](c2cccc(OCC(=O)N3CCC(OCCN4CCN(c5ccc(Nc6ncnc7c6ncn7C6CC(NC(=O)Cc7ccccc7)C6)cc5)CC4)CC3)c2)C(=O)N1 (stereo partly shown)")
"0/0/0%"
>>> measured_result("O=C1CC[C@H](n2nnc3ccc(N4CCN(CC5CCN(c6ccc(Nc7ncnc8c7ncn8C7CC(NC(=O)c8c(Cl)cccc8Cl)C7)cc6)CC5)CC4)cc3c2=O)C(=O)N1 (stereo partly shown)")
"0/0/0%"
>>> measured_result("O=C1CC[C@H](N2C(=O)c3ccc(OCC(=O)N4CCC5(CC4)CC(N4CCC(c6ccc(Nc7ncnc8c7ncn8[C@H]7C[C@@H](NC(=O)Cc8ccccc8)C7)cc6)CC4)C5)cc3C2=O)C(=O)N1")
"20/20/20%"
>>> measured_result("O=C1CC[C@H](N2C(=O)c3ccc(N4CC(C(=O)N5CCC(CCN6CCN(c7ccc(Nc8ncnc9c8ncn9C8CC(NC(=O)c9c(Cl)cccc9Cl)C8)cc7)CC6)CC5)C4)cc3C2=O)C(=O)N1 (stereo partly shown)")
"30/30/30%"
>>> measured_result("O=C1CC[C@H](N2C(=O)c3ccc(NCC(=O)N4CCC(CN5CCC(c6ccc(Nc7ncnc8c7ncn8C7CC(NC(=O)Cc8ccccc8)C7)cc6)CC5)CC4)cc3C2=O)C(=O)N1 (stereo partly shown)")
"20%"
>>> measured_result("O=C1CCC(N2C(=O)c3ccc(N4CCC(C(=O)N5CCC(CN6CCC(CCNc7ncnc8c7ncn8[C@H]7C[C@@H](NC(=O)c8c(Cl)cccc8Cl)C7)CC6)CC5)CC4)cc3C2=O)C(=O)N1 (stereo partly shown)")
"30%"
>>> measured_result("Cc1cccc(C(=O)N[C@H]2C[C@@H](n3cnc4c(Nc5ccc(N6CCN(CC7CCN(C(=O)COc8cccc9c8C(=O)N(C8CCC(=O)NC8=O)C9=O)CC7)CC6)cc5)ncnc43)C2)n1 (stereo partly shown)")
"0/0/0%"
>>> measured_result("O=C1CC[C@@H](c2ccc(OCC(=O)N3CCC(CN4CCN(c5ccc(Nc6ncnc7c6ncn7[C@H]6C[C@@H](NC(=O)c7c(Cl)cccc7Cl)C6)cc5)CC4)CC3)cc2)C(=O)N1")
"30%"
